METHOD: Oral bioavailability in dog (salt depleted)
CONDITION NOTES: in vivo
PROPERTY NAME: bioavailability (%)
I only need the number, in %, no unit after it.

Examples with answers:
{"SAMPLE SMILES": "CCCC[C@H](N[C@@H](Cc1ccccc1)C(=O)N1CCC(OCOC)CC1)C(=O)N[C@@H](CC1CCCCC1)[C@@H](O)C[C@H](C(=O)NCC(C)(C)N1CCOCC1)C(C)C", "bioavailability (%)": 37}
{"SAMPLE SMILES": "CCCC[C@H](N[C@@H](Cc1ccccc1)C(=O)N1CCC(OCOC)CC1)C(=O)N[C@@H](CC1CCCCC1)[C@@H](O)C[C@H](C(=O)NCCCN1CCOCC1)C(C)C", "bioavailability (%)": 57}

Now, please, on to the next molecule.
Query :: Read off the recorded bioavailability for CCCC[C@H](N[C@@H](Cc1ccccc1)C(=O)N1CCC(OCOC)CC1)C(=O)N[C@@H](CC1CCCCC1)[C@@H](O)C[C@H](C(=O)NCCN1CCOCC1)C(C)C
Result :: 52
